Biological target: human HSL (Homo sapiens, UniProt Q05469)
Construct: generate a full length human HSL ORF with a 3′-His6 tag
Sequence (Q05469 whole entry): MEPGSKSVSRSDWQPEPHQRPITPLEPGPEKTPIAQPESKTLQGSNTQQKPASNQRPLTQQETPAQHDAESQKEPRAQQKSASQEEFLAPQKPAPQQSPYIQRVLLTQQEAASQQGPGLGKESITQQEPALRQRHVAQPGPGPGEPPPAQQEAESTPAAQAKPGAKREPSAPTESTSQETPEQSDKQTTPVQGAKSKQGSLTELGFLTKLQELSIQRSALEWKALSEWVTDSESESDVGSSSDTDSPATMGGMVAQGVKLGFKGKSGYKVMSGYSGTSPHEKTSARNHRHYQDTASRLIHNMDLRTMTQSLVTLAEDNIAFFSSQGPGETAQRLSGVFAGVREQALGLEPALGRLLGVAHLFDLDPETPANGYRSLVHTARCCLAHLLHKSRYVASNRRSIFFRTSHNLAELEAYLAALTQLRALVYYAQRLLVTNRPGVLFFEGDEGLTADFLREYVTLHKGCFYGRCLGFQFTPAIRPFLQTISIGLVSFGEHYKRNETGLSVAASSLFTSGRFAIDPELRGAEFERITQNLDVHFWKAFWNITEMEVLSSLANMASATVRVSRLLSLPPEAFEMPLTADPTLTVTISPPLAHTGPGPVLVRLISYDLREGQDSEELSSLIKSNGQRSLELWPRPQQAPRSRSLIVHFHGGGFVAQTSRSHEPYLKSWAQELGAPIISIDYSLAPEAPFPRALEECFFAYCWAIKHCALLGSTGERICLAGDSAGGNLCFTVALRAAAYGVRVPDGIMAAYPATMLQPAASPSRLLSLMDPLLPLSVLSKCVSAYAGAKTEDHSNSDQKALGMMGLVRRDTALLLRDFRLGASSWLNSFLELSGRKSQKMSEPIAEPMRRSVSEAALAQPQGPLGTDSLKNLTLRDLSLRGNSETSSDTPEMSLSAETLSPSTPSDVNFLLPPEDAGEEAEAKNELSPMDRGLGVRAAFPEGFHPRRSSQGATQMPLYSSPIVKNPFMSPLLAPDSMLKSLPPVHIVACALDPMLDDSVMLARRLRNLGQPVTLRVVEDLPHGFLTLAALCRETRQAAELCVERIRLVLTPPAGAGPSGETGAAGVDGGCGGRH
Test: Human Hormone-Sensitive Lipase (HSL) enzyme inhibition assay (colorimetric, DMPT substrate)
Details: human full length HSL-His6, 2,3-dimercapto-1-propanol tributyrate substrate, 37° C. 20 minutes, absorbance at 405 nm; read-out: HSL hum IC50
Output: class label from IC50. Mapping: c1: < 20 nM; c2: ≥ 20 nM and < 60 nM; c3: ≥ 60 nM

INPUT: Returns: class label. Input: COc1ccc(N2CCC3(CC=CCC3)C2=O)cc1 (stereo not drawn)
OUTPUT: c3

INPUT: Returns: class label. Input: `O=C1N(c2ccc(C(F)(F)F)cc2)CC[C@]12CC[C@@](O)(COCC(F)(F)F)CC2`
OUTPUT: c1

INPUT: Returns: class label. Input: `COC[C@]1(O)CC[C@]2(CCN(c3ccc(O[C@@H](C)C(F)(F)F)nc3)C2=O)CC1`
OUTPUT: c2

INPUT: Returns: class label. Input: `CCCOC[C@]1(O)CC[C@@]2(CCN(c3ccc(OCC(F)(F)F)nc3)C2=O)CC1`
OUTPUT: c3

INPUT: Returns: class label. Input: `CCC[C@]1(O)CC[C@]2(CCN(c3ccc(CCOC)cc3)C2=O)CC1`
OUTPUT: c2

INPUT: Returns: class label. Input: `CC(C)COC[C@]1(O)CC[C@]2(CCN(c3ccc(OCC(F)(F)F)cc3)C2=O)CC1`
OUTPUT: c3

INPUT: Returns: class label. Input: `CCCNC(=O)O[C@H]1CC[C@@]2(CCN(c3ccc(CC)cc3)C2=O)CC1`
OUTPUT: c3

INPUT: Returns: class label. Input: `CC(C)S(=O)(=O)C[C@]1(O)CC[C@]2(CCN(c3ccc(O[C@@H](C)C(F)(F)F)nc3)C2=O)CC1`
OUTPUT: c1

INPUT: Returns: class label. Input: `CC(C)(O)[C@]1(O)CC[C@]2(CCN(c3ccc(OCC(F)(F)F)cc3)C2=O)CC1`
OUTPUT: c3

INPUT: Returns: class label. Input: `O=C1N(c2ccc3c(c2)OC(F)(F)O3)CC[C@]12CC[C@@](O)(C(F)(F)F)CC2`
OUTPUT: c3

INPUT: Returns: class label. Input: `CCC(CC)OC[C@]1(O)CC[C@]2(CCN(c3ccc(O[C@@H](C)C(F)(F)F)nc3)C2=O)CC1`
OUTPUT: c1

INPUT: Returns: class label. Input: `COC[C@]1(O)CC[C@]2(CCN(c3ccc(O[C@H](C)C(F)(F)F)cc3)C2=O)CC1`
OUTPUT: c2

INPUT: Returns: class label. Input: CCC(O)[C@H]1CC[C@@]2(CCN(c3ccc(C(C)(C)C)cc3)C2=O)CC1 (stereo partly drawn)
OUTPUT: c2

INPUT: Returns: class label. Input: `C[C@@H](Oc1ccc(N2CC[C@]3(CC[C@@](O)(COCC(F)(F)F)CC3)C2=O)cn1)C(F)(F)F`
OUTPUT: c2

---

Target: human HSL (Homo sapiens, UniProt Q05469)
Construct: generate a full length human HSL ORF with a 3′-His6 tag
Assay: Human Hormone-Sensitive Lipase (HSL) enzyme inhibition assay (colorimetric, DMPT substrate)
Settings: human full length HSL-His6, 2,3-dimercapto-1-propanol tributyrate substrate, 37° C. 20 minutes, absorbance at 405 nm; read-out: HSL hum IC50
Protocol: Production of Human Full Length Hormone Sensitive Lipase-His^6: 1) Cloning: cDNA was prepared from commercial human brain polyA+ RNA and used as a template in overlapping PCR to generate a full length human HSL ORF with a 3′-His6 tag. […] The protein concentration was calculated from absorbance at 280 nm, using 280=0.67 cm-1 mg-1. […] HSL enzyme activity was measured by a colorimetric assay using 2,3-dimercapto-1-propanol tributyrate (Aldrich, St. Louis, Mo.) as a substrate. […]
Mark Y only when IC50 stays strictly below 30 nM. Values equal to the cut-off are N.

INPUT: Quick check: IC50 of CC(C)Oc1ccc(N2CC[C@]3(CC[C@@](O)(C(C)C)CC3)C2=O)cc1 [Example 196] under 30 nM?
OUTPUT: Y

INPUT: Quick check: IC50 of CC(C)[C@]1(O)CC[C@]2(CCN(c3ccc(C(C)(C)C)cc3)C2=O)CC1 [Example 344] under 30 nM?
OUTPUT: Y

INPUT: Quick check: IC50 of CC(C)OC[C@]1(O)CC[C@]2(CCN(c3ccc(C(C)(C)C)cc3)C2=O)CC1 [Example 349] under 30 nM?
OUTPUT: Y

INPUT: Quick check: IC50 of COc1ccc(CNC(=O)O[C@H]2CC[C@@]3(CCN(c4ccc(OC(F)(F)F)cc4)C3=O)CC2)cc1 [Example 13] under 30 nM?
OUTPUT: N

INPUT: Quick check: IC50 of O=C1N(c2ccc(OCC(F)(F)F)nc2)CC[C@]12CC[C@@](O)(CCC(F)(F)F)CC2 [Example 166] under 30 nM?
OUTPUT: N

INPUT: Quick check: IC50 of O=C1N(c2ccc(OCC(F)(F)F)cc2)CC[C@]12CC[C@@](O)(COCC1CCCC1)CC2 [Example 273] under 30 nM?
OUTPUT: Y
